B1: BRF1 (parent)
chain: FVESSGGGSSAVGQFVSLDGAGKT

variants of: B1; assay: protein stability index of a GFP-peptide fusion (GPS, HEK-293T) (PSI 1-6); higher = more stable; details: c terminus: a fixed tail appended;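 further: lentivirally expressed fusions sorted by FACS into six bins by GFP to DsRed ratio, PSI derived from sequencing read proportions per bin multiplied by bin number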
protein stability index values by entry

Consider the worked cases shown below.
V2W    4.01
V12K    2.88
T24G    2.26
V12G    2.37

With those in mind, consider the next variant.
What does the record list as protein stability index for `F15S` ?
2.73
